Origin of values: PubChem BioAssay AID641

# assayedTarget: D(1A) dopamine receptor (Homo sapiens)
# testSummary: D1 CRE-luciferase signal change, two-sided – cell-based, HEK293 D1, dopamine EC30, D1 allosteric modulator project, primary screen (AID 641)
# assayConditions: dopamine EC30 potentiation, at 10 µM, actives deviate in either direction
The whole screen tested about 58,000 compounds, of which about 3,400 (5.9%) were called active.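 Rule for the calls: active = luminescence count or its row- and column-corrected plate score outside the 99.7% band of the plate's sample wells, on either side; inactive = the rest.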 The sample as a whole holds a higher share of actives than the screen did.
Give your call using only these classes: yes (1) for active, no (0) for inactive

compound: Cc1cccc(N2CCN(Cc3c(C)n(C)n(-c4ccccc4)c3=O)CC2)c1C
category: no (0)
--
compound: Cc1ccc(S(=O)(=O)C(C#N)c2nc3ccccc3nc2N2CCCC2)cc1C (stereo not given)
category: no (0)
--
compound: c1ccc(-n2ncc3c2ncn2c(CSc4nc5ccccc5s4)nnc32)cc1
category: no (0)
--
compound: CCn1cc(C(=O)N2CC=C(c3ccccc3)CC2)c(=O)c2ccc(C)nc21
category: no (0)
--
compound: N#CCCN1CCN(S(=O)(=O)c2ccc(S(=O)(=O)NC3CCCCC3)cc2)CC1
category: yes (1)

How was COCCNCCOCCOc1cccc(OC)c1 classified in this test? no (0)

How was Cc1ccc(N2C(=O)c3oc4ccccc4c(=O)c3C2c2cccnc2)nc1 (stereo not given) classified in this test? no (0)

---

# assayedTarget: D(1A) dopamine receptor (Homo sapiens)
# testSummary: D1 CRE-luciferase signal change, two-sided – cell-based, HEK293 D1, dopamine EC30, D1 allosteric modulator project, primary screen (AID 641)
# assayConditions: dopamine EC30 potentiation, at 10 µM, actives deviate in either direction
Screen size: about 58,000 compounds; about 3,400 (5.9%) were called active. This is one part of a sample in which actives are shown more often than they occur.
readoutName: B-score
Please respond with just the number, no unit label.

Please review the following examples before continuing.
compound: Cc1ccc(C(=O)NCCNS(=O)(=O)c2ccccc2)cc1
readoutName: B-score
numericReadout: -0.839

compound: COc1ccc(C2CC(=O)C=C(NCC3CCCO3)C2)cc1 (configuration not stated)
readoutName: B-score
numericReadout: 0.013

compound: Cc1cc(N2CCN(Cc3ccc4c(c3)OCO4)CC2)n2ncnc2n1
readoutName: B-score
numericReadout: 0.443

compound: CC1CCCN(C(=O)c2ccc3c(c2)C(=O)N(CCC2=CCCCC2)C3=O)C1 (configuration not stated)
readoutName: B-score
numericReadout: -0.192

compound: Nc1ccc(S(=O)(=O)NC(=O)c2ccccc2)cc1
readoutName: B-score
numericReadout: 31.8

Turning now to a further record.
What value of B-score has been recorded for this entry: COCCNC(=O)c1snc2ccc(Cl)cc12 0.741

---

# assayedTarget: D(1A) dopamine receptor (Homo sapiens) (UniProt P21728)
# Sequence (P21728 whole entry, looked up): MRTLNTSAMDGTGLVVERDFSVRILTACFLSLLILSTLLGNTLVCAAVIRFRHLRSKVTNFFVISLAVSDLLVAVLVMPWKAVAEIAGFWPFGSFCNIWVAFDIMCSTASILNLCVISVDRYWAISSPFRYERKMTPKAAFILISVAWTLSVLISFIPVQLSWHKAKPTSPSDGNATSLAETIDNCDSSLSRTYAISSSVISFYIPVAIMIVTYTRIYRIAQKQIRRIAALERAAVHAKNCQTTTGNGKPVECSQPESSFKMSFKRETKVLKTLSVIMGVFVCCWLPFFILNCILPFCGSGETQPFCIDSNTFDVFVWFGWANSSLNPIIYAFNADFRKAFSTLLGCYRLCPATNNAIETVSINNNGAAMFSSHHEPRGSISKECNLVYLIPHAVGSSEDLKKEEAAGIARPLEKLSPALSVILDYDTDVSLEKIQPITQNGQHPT
# testSummary: D1 CRE-luciferase signal change, two-sided – cell-based, HEK293 D1, dopamine EC30, D1 allosteric modulator project, primary screen (AID 641)
# assayConditions: dopamine EC30 potentiation, at 10 µM, actives deviate in either direction
Among all 58,000 compounds or so, about 3,400 (5.9%) were called active. The sample holds actives, similar compounds and a random draw of the others, so the mix is not that of the screen.
readoutName: B-score
Please respond with just the number, no unit label.

molecule: CN(c1nc2ccccc2n2c(-c3ccco3)nnc12)S(=O)(=O)c1ccccc1
readoutName: B-score
numericReadout: 1.04

What value of B-score has been recorded for this entry: Cn1c(-c2ccco2)nc2cc3ccccc3cc21 -4.84

What value of B-score has been recorded for this entry: O=C1c2oc3ccc(Br)cc3c(=O)c2C(c2cccc(F)c2)N1CCO (stereo unspecified) -0.882

What value of B-score has been recorded for this entry: COc1cc(OC)c(NC(=O)c2ccc(Br)o2)cc1Cl -0.284

What value of B-score has been recorded for this entry: Oc1c(C(c2cccs2)N2CCN(c3ccc(F)cc3)CC2)sc2ncnn12 (stereo unspecified) -1.14

What value of B-score has been recorded for this entry: Cc1nnc(SCC(=O)NCc2ccccc2)s1 0.474
